biological target: Torsin-1A-interacting protein 1 (Homo sapiens); assay: LAP1 binders from COS7 cell lysate, primary screen, small-molecule microarray, 635/667 nm fluorescence (AID 1116); details: COS7-hLAP1 lysate binding, 635 nm fluorescence, higher = more signal
Kind request: treat 0.9 as inclusive, so composite z-score at 0.9 or higher is Yes, anything lower is No.

Molecule: CN(C)CCCCCCNC(=O)[C@H]1C[C@H]2C(=O)N3CCC[C@H]3C(=O)N2[C@H]1c1ccc(O)cc1
Category: Yes

Molecule: COC(=O)[C@@]1(Cc2ccc(F)cc2)[C@H]2c3cc(C(=O)N(C)C)n(Cc4cc(F)c(F)c(F)c4)c3C[C@H]2CN1C(=O)c1ccccc1
Category: Yes

Molecule: O=C(c1ccccc1)N1Cc2ccccc2C[C@@]2(COC(c3ccc(OCCCO)cc3)=N2)C1=O
Category: Yes

Molecule: CCOC(=O)C[C@H]1[C@H](OC(=O)c2ccc(-c3ccccc3)cc2)[C@@H](NC(=O)Cc2ccc(OC)cc2)c2cc(OCCCO)ccc2N1C(=O)c1ccccc1
Category: No

Molecule: COc1cc2c(cc1OC)CN(C(=O)[C@@H]1[C@H]3C(=O)O[C@H](c4ccccc4)[C@H](c4ccccc4)N3[C@H](c3ccc(O)cc3)[C@@]13C(=O)Nc1ccccc13)CC2
Category: No

Molecule: CCC[C@@H]1C[C@@]1(CCC)[C@@H](NC(=O)c1ccccc1)c1cccc(Cl)c1
Category: Yes

Molecule: O=C1O[C@H](c2ccccc2)[C@H](c2ccccc2)N2[C@H]1[C@@H](C(=O)N1CCCCCCC1)[C@]1(C(=O)Nc3ccc(C#CCCO)cc31)[C@H]2c1ccccc1OCCO
Category: Yes

Molecule: CC#CC(=O)Oc1ccccc1C=CC(=O)OCC
Category: No

Molecule: COc1cc(NN2C(C(O)c3ccco3)C=CC3C(=O)N(c4ccccc4)C(=O)C32)cc(OC)c1OC (centres undefined)
Category: Yes

Molecule: CC(CO)N1C(=O)[C@@H]2C3C(=O)OCCC/C=C\[C@H]3OC23C=CCN(C(C)(C)C)C(=O)[C@@H]13 (some centres undefined)
Category: No

Molecule: CC(C)C(=C=CC[C@@H](O)c1ccc(OCCO)cc1)C[C@@H](O)c1ccccn1
Category: Yes

Molecule: COc1ccc([Si](C)(C)[C@H]2[C@H](CCO)O[C@@]3(C(=O)N(Cc4ccc(N(C=O)c5ccccc5)cc4)c4ccccc43)[C@@H]2C)cc1
Category: No

Molecule: COc1ccc([C@H]2OC[C@@H]3C[C@@H](Cc4ccccc4)C(=O)N32)cc1
Category: No

Molecule: COc1ccc(C(O)C2C=CC3C(=O)N(Cc4ccccc4)C(=O)C3N2n2cnnc2)cc1OCc1ccccc1 (centres undefined)
Category: No

Molecule: COC(=O)[C@@]1(CCS(=O)(=O)c2ccccc2)N=C(c2ccc(OCCCO)cc2)O[C@H]1c1ccccc1CN=[N+]=[N-]
Category: Yes

Molecule: CC1CC/C=C\[C@H]2OC34C=CCN(C(C)(C)C)C(=O)[C@H]3N(CCO)C(=O)[C@@H]4C2C(=O)O1 (some centres undefined)
Category: No

Molecule: COCCOC(=O)N1C(=O)[C@@]2(c3ccccc31)[C@H](c1ccccc1OCCO)N1[C@H](c3ccccc3)[C@H](c3ccccc3)OC(=O)[C@H]1[C@@H]2C(=O)N1CCN(c2ncccn2)CC1
Category: Yes

Molecule: COCCOC(=O)N1C(=O)[C@@]2(c3cc(C#Cc4ccc(OC)cc4)ccc31)[C@H](c1ccc(O)cc1)N1[C@H](c3ccccc3)[C@H](c3ccccc3)OC(=O)[C@H]1[C@@H]2C(=O)N1CCc2cc(OC)c(OC)cc2C1
Category: No

Molecule: COC(=O)C(CC#Cc1ccc2c(c1)[C@]1(C(=O)N2)[C@H](c2ccc(OCCO)cc2)N2[C@H](c3ccccc3)[C@H](c3ccccc3)OC(=O)[C@H]2[C@@H]1C(=O)Nc1nc2ccccc2s1)C(=O)OC
Category: Yes

Molecule: CC(C)N1C(=O)C[C@@](C(=O)NCC(F)(F)F)(c2ccc([N+](=O)[O-])cc2)[C@H]1c1ccc(CO)cc1
Category: No

Molecule: COc1cc2c(cc1O)C(C1CC1)N(Cc1sc3ccccc3c1Cl)CC2 (centres undefined)
Category: Yes

Molecule: COc1ccc(/C=C/C=O)cc1
Category: No

Molecule: C=CCC(OC(C)=O)[C@@H]1[C@@H](N(Cc2ccc(-c3ccccc3)cc2)C(=O)c2cccc3ccccc23)c2cc(OCCCO)ccc2N1C(=O)c1ccc(-c2ccccc2)cc1 (some centres undefined)
Category: Yes

Molecule: COc1ccccc1CN1C(=O)c2ccccc2[C@@]2(Cc3ccccc3N(CC(C)C)C2=O)[C@@H]1c1ccc(CO)cc1
Category: No

Molecule: CCOC(=O)C1=CC[C@@H](c2ccccc2)N(S(=O)(=O)c2ccc(C)cc2)[C@H]1c1ccccc1C
Category: No

Molecule: COc1ccc([Si](C)(C)[C@@H]2[C@@H](CC(=O)N3CCC[C@H]3CO)O[C@]3(C(=O)N(c4ccccc4)c4ccccc43)[C@H]2C)cc1
Category: No

Molecule: C=CCNC(=O)[C@@H]1[C@H]2C(=O)O[C@H](c3ccccc3)[C@H](c3ccccc3)N2[C@H](c2ccc(O)cc2)[C@@]12C(=O)Nc1ccc(C#CCNC(N)=O)cc12
Category: Yes
